Provenance of the data: patent US7429460B2

System: CTP:phosphocholine cytidylyltransferase (CCT)
Assay: CCT assay in hippocampal neuron homogenates with substance added to the assay mixture
Assay type: biochemical, rat
Conditions: 0.5 mM DOPC/0.5 mM oleic acid/0.3 mM sphingolipid or lyso-sphingolipid; 8-day-old neurons
assay.metric: effect on CCT activity

{"molecule": "CCCCCCCCCCCCC/C=C/[C@@H](O)[C@@H](N)CO[C@@H]1O[C@H](CO)[C@H](O)[C@H](O)[C@H]1O [galactosylsphingosine]", "assay.metric": "effect on CCT activity", "endpoint.value": "No significant effect"}
{"molecule": "CCCCCCCCCCCCC/C=C/[C@@H](O)[C@@H](N)COP(=O)([O-])OCC[N+](C)(C)C [lysosphingomyelin]", "assay.metric": "effect on CCT activity", "endpoint.value": "inhibited"}
{"molecule": "CCCCCCCCCCCCC/C=C/[C@@H](O)[C@@H](N)CO [sphingosine]", "assay.metric": "effect on CCT activity", "endpoint.value": "inhibited"}
{"molecule": "CCCCCCCCCCCCC/C=C/[C@@H](O)[C@@H](N)CO[C@@H]1O[C@H](CO)[C@@H](O)[C@H](O)[C@H]1O [glucosylsphingosine]", "assay.metric": "effect on CCT activity", "endpoint.value": "No significant effect"}
{"molecule": "CCCCCCCCCCCCC/C=C/[C@@H](O)C(N)CO[C@H]1O[C@H](CO)[C@@H](O[C@@H]2O[C@H](CO)[C@H](O)[C@H](O)[C@H]2O)[C@H](O)[C@@H]1O (some centres unmarked) [lactosylsphingosine]", "assay.metric": "effect on CCT activity", "endpoint.value": "inhibited"}
